Assay: Ratio of drug level in tumor to brain of C57BL/6 mouse bearing mouse B16-F0 cells at 0.74 to 0.92 MBq, iv after 6 hrs
Type: ADME, organism-based
Settings: in vivo
QUANTITY: Ratio

CCN(CC)CCNC(=O)c1ccc([125I])nc1.Cl.Cl ... 58.08

I: CCN(CC)CCNC(=O)c1cc2cc([125I])ccc2[nH]1.Cl
II: CCN(CC)CCNC(=O)c1ccc2cc([125I])ccc2c1.Cl
Input pair: I , II . Output: entry with lower Ratio. Write down the label attached to your selection.
I

A: CCN(CC)CCNC(=O)c1ccc2cc([125I])ccc2n1.Cl.Cl
B: CCN(CC)CCNC(=O)c1c[nH]c2ccc([125I])cc2c1=O.Cl.Cl
Input pair: A , B . Output: entry with lower Ratio. Write down the label attached to your selection.
A

###

Experiment: Biodistribution in intestinal content of C57BL/6 mouse bearing mouse B16-F0 cells at 0.74 to 0.92 MBq, iv after 3 hrs
Format: ADME, organism-based
Settings: in vivo
QUANTITY: Drug uptake (% ID/g)

Solved entries:
CCN(CC)CCNC(=O)c1cn2cc([125I])ccc2n1.Cl.Cl ... 78.03
CCN(CC)CCNC(=O)c1ccc2cncc([125I])c2n1.Cl.Cl ... 47.65
CCN(CC)CCNC(=O)c1cc2c([125I])cccc2s1.Cl ... 73.02
CCN(CC)CCNC(=O)c1ccc2cc([125I])ccc2n1.Cl.Cl ... 20.65
CCN(CC)CCNC(=O)c1cc2cc([125I])ccc2[nH]1.Cl ... 112.56
CCN(CC)CCNC(=O)c1cnc2cc([125I])ccc2n1.Cl.Cl ... 17.45

a: CCN(CC)CCNC(=O)c1nc2cc([125I])ccc2[nH]1.Cl.Cl
b: CCN(CC)CCNC(=O)c1cc2cc([125I])ccc2o1.Cl
c: CCN(CC)CCNC(=O)c1ccc2cc([125I])ccc2c1.Cl
d: CCN(CC)CCNC(=O)c1ccc([125I])nc1.Cl.Cl
Sort entries by Drug uptake from minimum to maximum value. Answer format: the labels, in the requested order.
d, c, a, b
(d: 4.94 % ID/g, c: 25.85 % ID/g, a: 72.05 % ID/g, b: 138.09 % ID/g)

###

Assay: Biodistribution in gall bladder of C57BL/6 mouse bearing mouse B16-F0 cells at 0.74 to 0.92 MBq, iv after 6 hrs
Format: ADME, organism-based
Settings: in vivo
QUANTITY: Drug uptake (% ID/g)

Solved entries:
CCN(CC)CCNC(=O)c1ccc2cncc([125I])c2n1.Cl.Cl ... 28.67
CCN(CC)CCNC(=O)c1cnc2cc([125I])ccc2n1.Cl.Cl ... 33.38

P: CCN(CC)CCNC(=O)c1nc2cc([125I])ccc2[nH]1.Cl.Cl
Q: CCN(CC)CCNC(=O)c1ccc([125I])nc1.Cl.Cl
Between P and Q , whose recorded Drug uptake is greater? Write down the label attached to your selection.
P

###

System: Kidney
Assay: Biodistribution in kidney of C57BL/6 mouse bearing mouse B16-F0 cells at 0.74 to 0.92 MBq, iv after 6 hrs
Format: ADME, organism-based
Conditions: in vivo
QUANTITY: Drug uptake (% ID/g)

CCN(CC)CCNC(=O)c1cc2cc([125I])ccc2o1.Cl ... 1.82
CCN(CC)CCNC(=O)c1c[nH]c2ccc([125I])cc2c1=O.Cl.Cl ... 0.2
CCN(CC)CCNC(=O)c1cc2c([125I])cccc2cn1.Cl.Cl ... 2.11

P: CCN(CC)CCNC(=O)c1ccc2cc([125I])ccc2c1.Cl
Q: CCN(CC)CCNC(=O)c1ccc2cncc([125I])c2n1.Cl.Cl
Between P and Q , whose recorded Drug uptake is greater? Write down the label attached to your selection.
P
